# target: HIV Env of isolate BJOX028000.10.3 (clade AE) (HIV)
# run-description: cell-based or functional assay
metric-name: IC80 (µg/ml) with constrains (µg/mL)
Report as a plain number; the unit µg/mL is understood.

*Q* For the binder PGDM1400 (antibody, V domains shown) VH: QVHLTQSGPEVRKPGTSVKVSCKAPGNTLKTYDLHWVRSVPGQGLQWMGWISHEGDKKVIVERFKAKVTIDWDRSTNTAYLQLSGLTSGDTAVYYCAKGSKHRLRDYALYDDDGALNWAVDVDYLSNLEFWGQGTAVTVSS VL: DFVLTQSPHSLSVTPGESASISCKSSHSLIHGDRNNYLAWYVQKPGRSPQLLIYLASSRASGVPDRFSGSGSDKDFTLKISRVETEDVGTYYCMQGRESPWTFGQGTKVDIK , what IC80 (µg/ml) with constrains is on record?
*A* 0.483

*Q* For the binder ePGDM5 (antibody, V domains shown) VH: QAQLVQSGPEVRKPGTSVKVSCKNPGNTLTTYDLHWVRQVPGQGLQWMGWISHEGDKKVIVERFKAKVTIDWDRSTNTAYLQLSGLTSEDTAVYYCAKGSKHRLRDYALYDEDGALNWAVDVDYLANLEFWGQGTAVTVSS VL: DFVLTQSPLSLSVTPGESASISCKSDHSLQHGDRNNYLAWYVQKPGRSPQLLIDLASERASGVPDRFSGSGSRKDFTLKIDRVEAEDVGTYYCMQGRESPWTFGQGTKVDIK , what IC80 (µg/ml) with constrains is on record?
*A* 0.086

*Q* For the binder ePGDM9 (antibody, V domains shown) VH: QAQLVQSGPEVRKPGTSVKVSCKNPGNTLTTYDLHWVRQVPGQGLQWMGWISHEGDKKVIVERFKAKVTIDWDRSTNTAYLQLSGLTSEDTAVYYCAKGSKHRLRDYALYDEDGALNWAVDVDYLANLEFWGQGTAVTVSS VL: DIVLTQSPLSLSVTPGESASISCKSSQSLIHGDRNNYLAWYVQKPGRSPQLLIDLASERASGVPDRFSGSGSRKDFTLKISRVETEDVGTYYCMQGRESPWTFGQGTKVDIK , what IC80 (µg/ml) with constrains is on record?
*A* 0.078

*Q* For the binder ePGDM13 (antibody, V domains shown) VH: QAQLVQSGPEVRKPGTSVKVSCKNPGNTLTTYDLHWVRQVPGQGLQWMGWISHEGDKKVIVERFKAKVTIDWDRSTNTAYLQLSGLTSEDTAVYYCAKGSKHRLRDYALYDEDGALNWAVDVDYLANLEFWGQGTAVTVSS VL: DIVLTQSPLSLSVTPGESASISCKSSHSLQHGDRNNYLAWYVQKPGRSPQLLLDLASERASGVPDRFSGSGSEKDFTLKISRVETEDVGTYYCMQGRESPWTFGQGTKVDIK , what IC80 (µg/ml) with constrains is on record?
*A* 0.139

Data provenance: patent US20230134571A1
